Conditions: in n-propyl acetate, 283.15 K
MEASURED_PROPERTY: solubility (mole fraction)
Form field (numeric): enter value without unit.

Sample `O=C1c2ccccc2C(=O)N1O` ; solubility (mole fraction) observed: 0.00202

====

Settings: in ethanol, 278.15 K
MEASURED_PROPERTY: solubility (mole fraction)
Form field (numeric): enter value without unit.

Sample `O=C1c2ccccc2C(=O)N1O` ; solubility (mole fraction) observed: 0.00307

====

Settings: in methanol, 283.15 K
MEASURED_PROPERTY: solubility (mole fraction)
Form field (numeric): enter value without unit.

Sample `O=C1c2ccccc2C(=O)N1O` ; solubility (mole fraction) observed: 0.00412

====

Conditions: in ethyl acetate, 308.15 K
MEASURED_PROPERTY: solubility (mole fraction)
Form field (numeric): enter value without unit.

Sample `O=C1c2ccccc2C(=O)N1O` ; solubility (mole fraction) observed: 0.00541

====

Details: in acetonitrile, 288.15 K
MEASURED_PROPERTY: solubility (mole fraction)
Form field (numeric): enter value without unit.

Sample `O=C1c2ccccc2C(=O)N1O` ; solubility (mole fraction) observed: 0.00312

====

Conditions: in n-propanol, 288.15 K
MEASURED_PROPERTY: solubility (mole fraction)
Form field (numeric): enter value without unit.

Sample `O=C1c2ccccc2C(=O)N1O` ; solubility (mole fraction) observed: 0.00321

====

Conditions: in 1,4-dioxane, 313.15 K
MEASURED_PROPERTY: solubility (mole fraction)
Form field (numeric): enter value without unit.

Sample `O=C1c2ccccc2C(=O)N1O` ; solubility (mole fraction) observed: 0.0319

====

Settings: in acetone, 313.15 K
MEASURED_PROPERTY: solubility (mole fraction)
Form field (numeric): enter value without unit.

Sample `O=C1c2ccccc2C(=O)N1O` ; solubility (mole fraction) observed: 0.0186

====

Details: in n-propyl acetate, 293.15 K
MEASURED_PROPERTY: solubility (mole fraction)
Form field (numeric): enter value without unit.

Sample `O=C1c2ccccc2C(=O)N1O` ; solubility (mole fraction) observed: 0.00281

====

Conditions: in acetone, 318.15 K
MEASURED_PROPERTY: solubility (mole fraction)
Form field (numeric): enter value without unit.

Sample `O=C1c2ccccc2C(=O)N1O` ; solubility (mole fraction) observed: 0.0202

====

Conditions: in ethyl acetate, 278.15 K
MEASURED_PROPERTY: solubility (mole fraction)

Sample `O=C1c2ccccc2C(=O)N1O` ; solubility (mole fraction) observed: 0.00214

====

Conditions: in n-propanol, 293.15 K
MEASURED_PROPERTY: solubility (mole fraction)
Form field (numeric): enter value without unit.

Sample `O=C1c2ccccc2C(=O)N1O` ; solubility (mole fraction) observed: 0.00388

====

Details: in n-propanol, 303.15 K
MEASURED_PROPERTY: solubility (mole fraction)
Form field (numeric): enter value without unit.

Sample `O=C1c2ccccc2C(=O)N1O` ; solubility (mole fraction) observed: 0.00568

====

Settings: in acetonitrile, 278.15 K
MEASURED_PROPERTY: solubility (mole fraction)
Form field (numeric): enter value without unit.

Sample `O=C1c2ccccc2C(=O)N1O` ; solubility (mole fraction) observed: 0.00232

====

Details: in 2-methoxyethanol, 298.15 K
MEASURED_PROPERTY: solubility (mole fraction)
Form field (numeric): enter value without unit.

Sample `O=C1c2ccccc2C(=O)N1O` ; solubility (mole fraction) observed: 0.0381
